Target: T1, purified human αvβ3 integrin protein (human, UniProt P06756 31-1048; P05106 27-788)
T1 construct: Bought heterodimer; also called ABI; purified αvβ3 integrin
T1 sequence (P06756 31-1048, form in doubt, chain 1 of 2): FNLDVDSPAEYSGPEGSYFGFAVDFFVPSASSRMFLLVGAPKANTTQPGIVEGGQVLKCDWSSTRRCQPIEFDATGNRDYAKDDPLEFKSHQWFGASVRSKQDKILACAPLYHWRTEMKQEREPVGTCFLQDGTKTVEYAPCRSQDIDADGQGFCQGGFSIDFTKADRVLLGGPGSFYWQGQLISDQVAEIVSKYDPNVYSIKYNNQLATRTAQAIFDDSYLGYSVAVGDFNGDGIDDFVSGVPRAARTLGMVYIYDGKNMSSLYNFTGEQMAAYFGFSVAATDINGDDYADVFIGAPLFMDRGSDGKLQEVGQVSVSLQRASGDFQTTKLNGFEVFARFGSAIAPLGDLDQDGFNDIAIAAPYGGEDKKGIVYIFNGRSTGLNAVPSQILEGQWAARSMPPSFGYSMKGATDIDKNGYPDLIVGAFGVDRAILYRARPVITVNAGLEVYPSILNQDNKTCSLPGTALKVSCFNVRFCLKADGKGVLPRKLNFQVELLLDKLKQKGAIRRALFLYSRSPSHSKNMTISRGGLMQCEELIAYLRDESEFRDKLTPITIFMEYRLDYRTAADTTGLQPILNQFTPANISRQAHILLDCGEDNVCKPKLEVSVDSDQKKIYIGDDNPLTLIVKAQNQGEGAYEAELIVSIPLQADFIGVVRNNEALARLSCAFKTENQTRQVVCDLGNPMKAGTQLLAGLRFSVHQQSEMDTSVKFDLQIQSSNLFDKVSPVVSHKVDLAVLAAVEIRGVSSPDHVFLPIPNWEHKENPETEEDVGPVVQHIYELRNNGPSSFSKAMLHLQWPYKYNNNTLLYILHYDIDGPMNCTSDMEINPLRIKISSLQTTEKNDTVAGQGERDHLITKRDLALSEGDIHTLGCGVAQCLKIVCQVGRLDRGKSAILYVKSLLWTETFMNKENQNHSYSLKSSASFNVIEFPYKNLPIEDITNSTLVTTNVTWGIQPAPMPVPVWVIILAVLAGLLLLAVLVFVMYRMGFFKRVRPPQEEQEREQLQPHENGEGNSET
T1 sequence (P05106 27-788, form in doubt, chain 2 of 2): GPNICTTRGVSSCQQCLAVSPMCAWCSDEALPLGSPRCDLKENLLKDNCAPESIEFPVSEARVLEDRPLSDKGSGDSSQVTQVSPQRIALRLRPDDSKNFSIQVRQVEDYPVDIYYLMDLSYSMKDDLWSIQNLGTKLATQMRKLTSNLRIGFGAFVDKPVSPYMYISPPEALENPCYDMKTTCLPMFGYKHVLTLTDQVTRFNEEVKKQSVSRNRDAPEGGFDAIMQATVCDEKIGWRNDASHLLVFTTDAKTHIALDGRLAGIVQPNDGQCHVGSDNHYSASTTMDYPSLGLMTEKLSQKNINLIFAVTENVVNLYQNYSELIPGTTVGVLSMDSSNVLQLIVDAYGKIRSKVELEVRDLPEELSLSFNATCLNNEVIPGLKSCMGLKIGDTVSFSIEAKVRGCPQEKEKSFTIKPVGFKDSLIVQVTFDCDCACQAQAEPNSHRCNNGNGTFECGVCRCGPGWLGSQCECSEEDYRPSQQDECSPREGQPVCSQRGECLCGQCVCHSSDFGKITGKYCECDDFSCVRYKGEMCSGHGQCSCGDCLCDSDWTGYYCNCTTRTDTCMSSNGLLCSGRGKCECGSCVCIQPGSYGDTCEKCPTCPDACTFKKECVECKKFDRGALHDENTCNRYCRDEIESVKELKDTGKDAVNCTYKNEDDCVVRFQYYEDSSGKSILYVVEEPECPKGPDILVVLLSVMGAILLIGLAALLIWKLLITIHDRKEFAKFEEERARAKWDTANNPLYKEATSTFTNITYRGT
Assay: competition with 125I-echistatin on purified human αvβ3 integrin, filter plate;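 also: test ligands incubated two hours at room temperature with the integrin, bound radioactivity retained on filters measured by gamma counting, IC50 obtained through nonlinear regression fitting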
Bridges are numbered along the chain shown (N, C = ends). Primed or numbered codes have the meaning given here. [ ]: non-standard residue; d: D form. The star is where a group is joined. DOTA = O=C(O)CN1CCN(CC(=O)O)CCN(CC(=O)*)CCN(CC(=O)O)CC1; DTPA = O=C(O)CN(CCN(CC(=O)O)CC(=O)O)CCN(CC(=O)O)CC(=O)*
READOUT: pIC50
Scale for pIC50: -log10 of concentration given in mol/L; no unit attached.

Entry under test: {DTPA}-[dF]CY[dW]KTCTVRGD-NH2 (disulfide 2-7) [DTPA-DPhe-Cyclo(Cys-Tyr-DTrp-Lys-Thr-Cys)-Thr-Val-Arg-Gly-Asp-NH2] . Its pIC50 was 5.95

Entry under test: {DTPA}-GRDSPK-OH [DTPA-Gly-Arg-Asp-Ser-Pro-Lys-OH] . Its pIC50 was 6.07

Entry under test: {Cypate(2)}-GRDSPK-OH [Cypate(2)-Gly-Arg-Asp-Ser-Pro-Lys-OH] . Its pIC50 was 3.58

Entry under test: {DOTA}-GRDSPK-OH (also called DOTA-GRD) [DOTA-Gly-Arg-Asp-Ser-Pro-Lys-OH] . Its pIC50 was 3.46

Entry under test: VRGDXCYXKTCT (HELM PEPTIDE1{V.R.G.D.[dF].C.Y.[dW].K.T.C.T.[am]}$PEPTIDE1,PEPTIDE1,6:R3-11:R3$$$V2.0; SMILES CC(C)[C@H](N)C(=O)N[C@@H](CCCNC(=N)N)C(=O)NCC(=O)N[C@@H](CC(=O)O)C(=O)N[C@H](Cc1ccccc1)C(=O)N[C@H]1CSSC[C@@H](C(=O)N[C@H](C(N)=O)[C@@H](C)O)NC(=O)[C@H]([C@@H](C)O)NC(=O)[C@H](CCCCN)NC(=O)[C@@H](Cc2c[nH]c3ccccc23)NC(=O)[C@H](Cc2ccc(O)cc2)NC1=O) [H-Val-Arg-Gly-Asp-DPhe-Cyclo(Cys-Tyr-DTrp-Lys-Thr-Cys)-Thr-NH2] . Its pIC50 was 5.78
